Origin of values: patent US20260078108A1

Biological target: PKN1/PRK1 (Homo sapiens)
Sequence (Q16512 whole entry): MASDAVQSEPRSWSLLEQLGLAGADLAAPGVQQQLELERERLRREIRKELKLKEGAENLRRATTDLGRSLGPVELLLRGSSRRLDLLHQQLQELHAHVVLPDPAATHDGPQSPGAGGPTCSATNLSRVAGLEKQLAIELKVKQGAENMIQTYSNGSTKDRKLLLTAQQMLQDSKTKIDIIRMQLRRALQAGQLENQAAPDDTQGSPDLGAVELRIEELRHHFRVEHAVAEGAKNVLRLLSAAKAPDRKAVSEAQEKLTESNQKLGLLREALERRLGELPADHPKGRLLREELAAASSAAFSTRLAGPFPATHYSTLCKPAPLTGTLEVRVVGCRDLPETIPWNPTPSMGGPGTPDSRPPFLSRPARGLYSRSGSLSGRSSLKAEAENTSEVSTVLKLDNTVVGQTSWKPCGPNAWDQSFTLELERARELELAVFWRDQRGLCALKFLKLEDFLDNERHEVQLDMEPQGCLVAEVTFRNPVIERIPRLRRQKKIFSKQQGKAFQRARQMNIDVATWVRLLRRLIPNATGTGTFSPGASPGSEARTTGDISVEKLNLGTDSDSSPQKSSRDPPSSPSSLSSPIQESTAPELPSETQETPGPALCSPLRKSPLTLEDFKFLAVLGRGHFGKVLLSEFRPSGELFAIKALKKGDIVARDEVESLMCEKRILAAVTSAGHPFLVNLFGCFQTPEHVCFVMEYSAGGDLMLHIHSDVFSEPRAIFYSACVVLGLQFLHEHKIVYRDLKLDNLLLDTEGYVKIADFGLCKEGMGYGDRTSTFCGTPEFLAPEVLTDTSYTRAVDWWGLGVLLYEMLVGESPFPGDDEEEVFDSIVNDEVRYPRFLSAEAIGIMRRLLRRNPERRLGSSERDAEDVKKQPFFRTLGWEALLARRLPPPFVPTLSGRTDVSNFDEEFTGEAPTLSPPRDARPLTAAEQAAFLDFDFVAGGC
Assay: Kinase panel 33P-ATP filter assay, PKN1/PRK1
Type: biochemical
Details: HCl salt tested; ATP Conc. 15 μM (Km); read-out: Compound IC50 (nM) PKN1/PRK1
Each entry below carries its reported IC50.
PROPERTY NAME: IC50 (nM)

- NCc1ccc(C(=O)Nc2ccncc2F)cc1-c1cccc(C(=O)Nc2ccc(SC[C@@H]3CCOC3=O)cc2)c1 [R-enantiomer]: 7.9
- NCc1ccc(C(=O)Nc2ccncc2F)cc1-c1cccc(C(=O)Nc2ccc(SC[C@H]3CCOC3=O)cc2)c1 [S-enantiomer]: 8.5

----------
Each entry below carries its reported IC50.
Target: Haspin (Homo sapiens, UniProt Q8TF76)
Sequence (Q8TF76 1-798): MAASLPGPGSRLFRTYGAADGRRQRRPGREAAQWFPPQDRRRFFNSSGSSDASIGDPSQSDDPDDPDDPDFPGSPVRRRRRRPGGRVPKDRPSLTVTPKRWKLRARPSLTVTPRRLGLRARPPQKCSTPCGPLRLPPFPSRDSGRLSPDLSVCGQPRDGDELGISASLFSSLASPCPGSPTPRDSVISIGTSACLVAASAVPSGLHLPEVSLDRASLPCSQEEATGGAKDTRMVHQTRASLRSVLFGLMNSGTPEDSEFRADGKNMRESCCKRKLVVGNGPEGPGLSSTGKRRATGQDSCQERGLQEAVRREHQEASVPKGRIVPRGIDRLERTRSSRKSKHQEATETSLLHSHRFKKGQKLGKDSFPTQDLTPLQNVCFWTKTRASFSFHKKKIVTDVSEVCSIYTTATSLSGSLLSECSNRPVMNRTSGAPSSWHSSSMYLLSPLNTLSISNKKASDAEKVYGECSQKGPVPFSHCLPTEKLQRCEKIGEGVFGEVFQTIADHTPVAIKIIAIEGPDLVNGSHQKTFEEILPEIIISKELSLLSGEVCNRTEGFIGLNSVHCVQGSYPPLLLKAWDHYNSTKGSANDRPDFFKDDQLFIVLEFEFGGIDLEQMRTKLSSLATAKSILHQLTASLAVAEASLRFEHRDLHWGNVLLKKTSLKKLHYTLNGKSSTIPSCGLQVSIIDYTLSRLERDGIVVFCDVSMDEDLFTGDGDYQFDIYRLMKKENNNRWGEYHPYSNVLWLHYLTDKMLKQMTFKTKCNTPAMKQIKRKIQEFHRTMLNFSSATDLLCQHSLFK
Assay: Kinase panel 33P-ATP filter assay, Haspin
Assay type: biochemical
Conditions: HCl salt tested; ATP Conc. 20 μM (Km); read-out: Compound IC50 (nM) Haspin
PROPERTY NAME: IC50 (nM)

• NCc1ccc(C(=O)Nc2ccncc2F)cc1-c1cccc(C(=O)Nc2ccc(SC[C@H]3CCOC3=O)cc2)c1 [S-enantiomer] = 297
• NCc1ccc(C(=O)Nc2ccncc2F)cc1-c1cccc(C(=O)Nc2ccc(SC[C@@H]3CCOC3=O)cc2)c1 [R-enantiomer] = 134
